src = patent US20220056149A1

biological target: T1, hEGFR-Fc (Sino Biological) (human, UniProt P00533 25-645); test: antigen binding activity, summary table; assay not named on the sheet
T1 construct: Bought; also called human EGFR; humans EGFR-Fc protein; not shown: Fc part of a bought fusion protein
Reported Property: binding result

{"Binder": "GE10-CD-H (other) antigen binding fragment-CD fusion: MLHLWVPEPWTQTGGGGSGGGGSGGGGSVTGGMASKWDQKGMDIAYEEAALGYKEGGVPIGGCLINNKDGSVLGRGHNMRFQKGSATLHGEISTLENCGRLEGKVYKDTTLYTTLSPCDMCTGAIIMYGIPRCVVGENVNFKSKGEKYLQTRGHEVVVVDDERCKKIMKQFIDERPQDWFEDIGEGSSHHHHHH", "Reported Property": "binding result", "Reported Result": "binds"}
{"Binder": "Inherbin3-CD-H (other) antigen binding fragment-CD fusion: MLVYNKLTFQLEPNPHTKGGGGSGGGGSGGGGSVTGGMASKWDQKGMDIAYEEAALGYKEGGVPIGGCLINNKDGSVLGRGHNMRFQKGSATLHGEISTLENCGRLEGKVYKDTTLYTTLSPCDMCTGAIIMYGIPRCVVGENVNFKSKGEKYLQTRGHEVVVVDDERCKKIMKQFIDERPQDWFEDIGEGSSHHHHHH", "Reported Property": "binding result", "Reported Result": "binds"}
